- assay-remarks: Cytotoxicity against human MT2 cells assessed as decrease in cell viability
- Assay type: cell-based
endpoint: CC50

Consider the worked cases shown below.
{"columns": ["compound", "CC50"],
 "data": [
  ["O=C(C(=O)N1CCN(C(=O)c2ccccc2)CC1)c1ccc2cccnc2c1", "> 300 µM"],
  ["C[C@@H]1CN(C(=O)c2ccccc2)CCN1C(=O)C(=O)c1ccc2cc(C(N)=O)ccc2c1", "189 µM"],
  ["C[C@@H]1CN(C(=O)c2ccccc2)CCN1C(=O)C(=O)c1cc2cccn2cn1", "> 300 µM"],
  ["O=C(C(=O)N1CCN(C(=O)c2ccccc2)CC1)c1cccc2ccccc12", "> 300 µM"],
  ["CC1CN(C(=O)c2ccccc2)CCN1C(=O)C(=O)c1nsc2ccccc12 (stereo not given)", "75 µM"]
]}

Which CC50 value belongs to C[C@@H]1CN(C(=O)c2ccccc2)CCN1C(=O)C(=O)c1nc2ccccc2[nH]1 ?
> 300 µM

Which CC50 value belongs to O=C(C(=O)N1CCN(C(=O)c2ccccc2)CC1)c1cc2ccccc2s1 ?
9 µM

Which CC50 value belongs to C[C@@H]1CN(C(=O)c2ccccc2)CCN1C(=O)C(=O)c1ccc2ccccc2n1 ?
198 µM

Which CC50 value belongs to O=C(C(=O)N1CCN(C(=O)c2ccccc2)CC1)c1nc2ccccc2[nH]1 ?
> 300 µM

Which CC50 value belongs to O=C(C(=O)N1CCN(C(=O)c2ccccc2)CC1)c1ccc2cccnc2n1 ?
> 300 µM

Which CC50 value belongs to C[C@H]1CN(C(=O)c2ccccc2)CCN1C(=O)C(=O)c1ccc2ccccc2n1 ?
166 µM

Which CC50 value belongs to O=C(C(=O)N1CCN(C(=O)c2ccccc2)CC1)c1ccc2nccnc2c1 ?
> 300 µM

Which CC50 value belongs to O=C(C(=O)N1CCN(C(=O)c2ccccc2)CC1)c1cc2ccccc2cn1 ?
> 300 µM

Which CC50 value belongs to COc1ccc2cc(C(=O)C(=O)N3CCN(C(=O)c4ccccc4)CC3C)[nH]c2c1 (stereo not given) ?
27 µM

Which CC50 value belongs to COc1cccc2nc(C(=O)C(=O)N3CCN(C(=O)c4ccccc4)CC3C)ccc12 (stereo not given) ?
200 µM

Which CC50 value belongs to COc1ccc2cc(C(=O)C(=O)N3CCN(C(=O)c4ccccc4)C[C@H]3C)ccc2c1 ?
41 µM

* * *

- assay-remarks: Cytotoxicity against human MT2 cells assessed as decrease in cell viability
- Format: cell-based
Recorded CC50 by entry
Give the quantity in µM, number only.

Consider the worked cases shown below.
{"columns": ["molecule", "reported-value"],
 "data": [
  ["C[C@@H]1CN(C(=O)c2ccccc2)CCN1C(=O)C(=O)c1ccc2cc(Br)ccc2c1", 301],
  ["CC1CN(C(=O)c2ccccc2)CCN1C(=O)C(=O)c1ccc2cc(F)ccc2n1 (centres undefined)", 258],
  ["C[C@@H]1CN(C(=O)c2ccccc2)CCN1C(=O)C(=O)c1ccc2ccccc2c1", 171],
  ["COc1ccc2nc(C(=O)C(=O)N3CCN(C(=O)c4ccccc4)CC3C)ccc2c1 (centres undefined)", 184]
]}

# context switch: different molecule, same CC50
Which CC50 value belongs to CC1CN(C(=O)c2ccccc2)CCN1C(=O)C(=O)c1ccc2c(O)cccc2n1 (centres undefined) ?
195

* * *

Recorded CC50 by entry
- assay-remarks: Cytotoxicity against human MT2 cells assessed as decrease in cell viability
- Type: cell-based
Give the quantity in µM, number only.

Consider the worked cases shown below.
{"columns": ["compound", "reported-value"],
 "data": [
  ["CC1CN(C(=O)c2ccccc2)CCN1C(=O)C(=O)c1ccc2cc(Br)ccc2n1 (centres undefined)", 134],
  ["COc1ccc2nc(C(=O)C(=O)N3CCN(C(=O)c4ccccc4)C[C@H]3C)sc2c1", 151],
  ["C[C@@H]1CN(C(=O)c2ccccc2)CCN1C(=O)C(=O)c1c[nH]c2ccccc12", 200]
]}

Which CC50 value belongs to O=C(C(=O)N1CCN(C(=O)c2ccccc2)CC1)c1c[nH]c2ccccc12 ?
339

Which CC50 value belongs to CC1CN(C(=O)c2ccccc2)CCN1C(=O)C(=O)c1ccc2cc(O)ccc2n1 (centres undefined) ?
210

Which CC50 value belongs to C[C@@H]1CN(C(=O)c2ccccc2)CCN1C(=O)C(=O)c1c[nH]c2c1ccc1cccnc12 ?
45

Which CC50 value belongs to C[C@H]1CN(C(=O)c2ccccc2)CCN1C(=O)C(=O)c1cnc2ccccc2n1 ?
114

Which CC50 value belongs to C[C@@H]1CN(C(=O)c2ccccc2)CCN1C(=O)C(=O)c1ccc2cc(C(=N)NO)ccc2c1 ?
234

* * *

- assay-remarks: Cytotoxicity against human MT2 cells assessed as decrease in cell viability
- Format: cell-based
Recorded CC50 by entry
Give the quantity in µM, number only.

Consider the worked cases shown below.
{"columns": ["molecule", "reported-value"],
 "data": [
  ["C[C@@H]1CN(C(=O)c2ccccc2)CCN1C(=O)C(=O)c1ccc2cc(C#N)ccc2c1", 102],
  ["CC1CN(C(=O)c2ccccc2)CCN1C(=O)C(=O)c1ccc2ccccc2n1 (stereo not given)", 266],
  ["COc1cc(OC)c2cc(C(=O)C(=O)N3CCN(C(=O)c4ccccc4)CC3C)[nH]c2c1 (stereo not given)", 68],
  ["O=C(C(=O)N1CCN(C(=O)c2ccccc2)CC1)c1csc2ccccc12", 141]
]}

# context switch: different molecule, same CC50
Which CC50 value belongs to O=C(C(=O)N1CCN(C(=O)c2ccccc2)CC1)c1ccc2ccccc2c1 ?
94

* * *

- assay-remarks: Cytotoxicity against human MT2 cells assessed as decrease in cell viability
- Format: cell-based
Recorded CC50 by entry

Which CC50 value belongs to O=C(C(=O)N1CCN(C(=O)c2ccccc2)CC1)c1cn2c(n1)sc1ccccc12 ?
> 300 µM

Which CC50 value belongs to O=C(C(=O)N1CCN(C(=O)c2ccccc2)CC1)c1ccc2cnccc2n1 ?
> 300 µM

Which CC50 value belongs to COc1cc(C(=O)C(=O)N2CCN(C(=O)c3ccccc3)C[C@H]2C)nc2ccccc12 ?
96 µM

Which CC50 value belongs to C[C@@H]1CN(C(=O)c2ccccc2)CCN1C(=O)C(=O)c1ccc2scnc2c1 ?
> 300 µM

Which CC50 value belongs to C[C@@H]1CN(C(=O)c2ccccc2)CCN1C(=O)C(=O)c1ccc2[nH]nnc2c1 ?
> 300 µM

* * *

- assay-remarks: Cytotoxicity against human MT2 cells assessed as decrease in cell viability
- Assay type: cell-based
endpoint: CC50 (µM)
Give the quantity in µM, number only.

{"columns": ["compound", "CC50 / µM"],
 "data": [
  ["COc1ccc2[nH]c(C(=O)C(=O)N3CCN(C(=O)c4ccccc4)CC3C)cc2c1 (centres undefined)", 33]
]}

Which CC50 value belongs to CC1CN(C(=O)c2ccccc2)CCN1C(=O)C(=O)c1cccc2cc[nH]c12 (centres undefined) ?
212

* * *

- assay-remarks: Cytotoxicity against human MT2 cells assessed as decrease in cell viability
- Type: cell-based
Recorded CC50 by entry

{"columns": ["structure-as-smiles", "CC50"],
 "data": [
  ["C[C@@H]1CN(C(=O)c2ccccc2)CCN1C(=O)C(=O)c1cc2sccc2s1", "> 300 µM"],
  ["O=C(C(=O)N1CCN(C(=O)c2ccccc2)CC1)c1nc2ccccc2o1", "> 300 µM"],
  ["C[C@@H]1CN(C(=O)c2ccccc2)CCN1C(=O)C(=O)c1cc2sccc2[nH]1", "106 µM"]
]}

# context switch: different compound, same CC50
Which CC50 value belongs to O=C(C(=O)N1CCN(C(=O)c2ccccc2)CC1)c1cnc2ccccc2n1 ?
> 300 µM

* * *

- assay-remarks: Cytotoxicity against human MT2 cells assessed as decrease in cell viability
- Assay type: cell-based
endpoint: CC50

Consider the worked cases shown below.
{"columns": ["structure-as-smiles", "CC50"],
 "data": [
  ["C[C@@H]1CN(C(=O)c2ccccc2)CCN1C(=O)C(=O)c1n[nH]c2ccccc12", "> 300 µM"],
  ["C[C@@H]1CN(C(=O)c2ccccc2)CCN1C(=O)C(=O)c1nc2ccccc2s1", "> 230 µM"],
  ["C[C@@H]1CN(C(=O)c2ccccc2)CCN1C(=O)C(=O)c1ccc2cc(C(=O)O)ccc2c1", "> 300 µM"]
]}

# context switch: different compound, same CC50
Which CC50 value belongs to O=C(C(=O)N1CCN(C(=O)c2ccccc2)CC1)c1cc2ccccc2[nH]1 ?
> 300 µM
